target: recombinant POPTc80 (Trypanosoma cruzi, UniProt Q4E132); experiment: POPTc80 enzyme inhibition and kinetic assay (Suc-GPLGP-AMC fluorogenic substrate); format: biochemical; details: four compound and five substrate concentrations; means ± SD of three replications; read-out: POPTc80 Ki
Sequence (Q4E132 entry or part of it): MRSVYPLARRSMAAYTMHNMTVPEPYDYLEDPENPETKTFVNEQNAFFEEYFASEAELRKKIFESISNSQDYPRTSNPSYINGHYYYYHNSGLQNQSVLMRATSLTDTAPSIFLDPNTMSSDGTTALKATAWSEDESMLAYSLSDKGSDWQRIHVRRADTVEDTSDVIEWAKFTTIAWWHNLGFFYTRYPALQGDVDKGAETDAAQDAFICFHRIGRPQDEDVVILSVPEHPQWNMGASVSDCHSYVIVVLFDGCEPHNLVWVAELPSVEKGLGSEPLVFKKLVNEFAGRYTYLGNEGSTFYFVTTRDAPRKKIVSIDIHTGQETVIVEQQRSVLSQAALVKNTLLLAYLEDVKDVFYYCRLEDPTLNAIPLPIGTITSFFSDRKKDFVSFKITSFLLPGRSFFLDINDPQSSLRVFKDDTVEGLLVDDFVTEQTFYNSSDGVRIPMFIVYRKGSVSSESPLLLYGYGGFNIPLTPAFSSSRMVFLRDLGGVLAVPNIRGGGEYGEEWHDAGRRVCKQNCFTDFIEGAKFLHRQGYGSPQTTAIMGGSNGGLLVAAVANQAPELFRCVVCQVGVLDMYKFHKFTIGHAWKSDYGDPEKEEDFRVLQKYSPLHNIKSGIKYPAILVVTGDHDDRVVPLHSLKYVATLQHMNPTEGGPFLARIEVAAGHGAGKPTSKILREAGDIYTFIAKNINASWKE
Listing of recorded pKi by entry.
The read-out pKi is expressed as -log10 of concentration in moles per litre.

Some solved entries appear below for comparison.
compound	reported.property	measured.result
O=C(NCCc1cscn1)C1CCCCC1C(=O)N1CCCC1 (centres unmarked) [LC-45]	pKi	7.27
O=C(C1CCCN1C(=O)CCCc1ccc(Cl)cc1)N1CCOCC1 (centres unmarked) [LC-55]	pKi	6.08
Cn1c(CNC(=O)C2CCCCC2C(=O)N2CCCC2)nc2ccccc21 (centres unmarked) [LC-53]	pKi	6.80
O=C(NCCOc1cccc2cccnc12)C1CCCCC1C(=O)N1CCCC1 (centres unmarked) [LC-44]	pKi	6.76

Continue with the next compound.
Problem: What value of measured pKi is listed for O=C(NCCCc1ccccn1)C1CCCCC1C(=O)N1CCCC1 (centres unmarked) [LC-46] ?
Solution: 6.29
